procedure_text: Cellular viability qHTS for adrenocortical cancer (ACC) cell line SW-13 (AID 1963989);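 also: cells grown in serum-free medium with ITS supplement; % is scaled to controls: 0 for no effect and ±100 for the full control effect; nearly all actives have a fitted effect of over 65% in size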
stated_conditions: SW-13 ACC cells viability, CellTiter-Glo, 48 h; stronger effect = lower value
Inconclusive results are not listed.
Assignment: determine reported activity (max response) for the given compounds.
Numbers only here, please. The scale is %.

What does the data say about its activity (max response)? Entry: Clc1ccccc1C(c1ccccc1)(c1ccccc1)n1cccn1 -15.1

What does the data say about its activity (max response)? Entry: O=c1[nH]c2ccccc2n1CCCN1CCC(n2c(=O)[nH]c3cc(Cl)ccc32)CC1 -19.5

What does the data say about its activity (max response)? Entry: CCN(CC)CCOC(=O)C(C)(c1ccccc1)c1ccccc1 -13.3

What does the data say about its activity (max response)? Entry: CN1C(=O)NC(=O)C(C)(C2=CCCCC2)C1=O (centres undefined) -0.484

What does the data say about its activity (max response)? Entry: CC[N+]1(CC)CCC(OC(=O)C(O)(c2ccccc2)c2ccccc2)C1 (centres undefined) 5.92

What does the data say about its activity (max response)? Entry: C[C@]12CC[C@H]3[C@@H](CCC4=CC(=O)CC[C@@]43C)[C@@H]1CC[C@@H]2C(=O)O 11.4

What does the data say about its activity (max response)? Entry: CCOP(=S)(OCC)Oc1ccc2c(C)c(Cl)c(=O)oc2c1 7.58

What does the data say about its activity (max response)? Entry: CC(C)NCC(O)c1ccc(N)c(C#N)c1 (centres undefined) 6.97

What does the data say about its activity (max response)? Entry: Clc1ccccc1N1CCNCC1 -1.85

What does the data say about its activity (max response)? Entry: O=C(CBr)N1CC([N+](=O)[O-])([N+](=O)[O-])C1 7.48

What does the data say about its activity (max response)? Entry: CC(C)c1c(CN(C)C(C)Cc2ccccc2)n(C)n(-c2ccccc2)c1=O (centres undefined) 5.24

What does the data say about its activity (max response)? Entry: CCOP(=O)(NC(C)C)Oc1ccc(SC)c(C)c1 (centres undefined) -12.8

What does the data say about its activity (max response)? Entry: CCNC(=O)C[C@@H]1N=C(c2ccc(Cl)cc2)c2cc(OC)ccc2-n2c(C)nnc21 -15.2

What does the data say about its activity (max response)? Entry: CN1CCc2cc(Cl)c(O)cc2[C@H]2c3ccccc3CC[C@@H]21 -19.8

What does the data say about its activity (max response)? Entry: CC(=O)OC1(c2ccccc2)CCN(CCc2ccccc2)CC1 -14.1

What does the data say about its activity (max response)? Entry: COc1cc(CCN)cc(OC)c1OC -7.31

What does the data say about its activity (max response)? Entry: COP(=S)(OC)Oc1ccc(Sc2ccc(OP(=S)(OC)OC)cc2)cc1 9.16

What does the data say about its activity (max response)? Entry: Clc1cccc(N2CCNCC2)c1 2.07

What does the data say about its activity (max response)? Entry: CN[C@@H]1Cc2cccc3[nH]c(=O)n(c23)C1 -9.99

What does the data say about its activity (max response)? Entry: O=[N+]([O-])c1cc([As](=O)(O)O)ccc1O 2.65

What does the data say about its activity (max response)? Entry: COc1ccc(CN2CCNCC2)c(OC)c1OC 10.4

What does the data say about its activity (max response)? Entry: C#CCOC(C(=O)OCCN(C)C)(c1ccccc1)c1ccccc1 15.9

What does the data say about its activity (max response)? Entry: ClCCCN1CCN(c2cccc(Cl)c2)CC1 -6.01

What does the data say about its activity (max response)? Entry: CC(C)(N)Cc1ccc(Cl)cc1 9.02

What does the data say about its activity (max response)? Entry: CCN(CC)Cc1nccn1-c1ccc([N+](=O)[O-])cc1C(=O)c1ccccc1Cl -3.26

What does the data say about its activity (max response)? Entry: CCCC1CCCCN1 (centres undefined) 12.1

What does the data say about its activity (max response)? Entry: C=CCN1CC[C@]23CCCC[C@H]2[C@H]1Cc1ccc(O)cc13 -5.85

What does the data say about its activity (max response)? Entry: CC(Cc1ccccc1)N(C)Cc1ccco1 (centres undefined) -0.53

What does the data say about its activity (max response)? Entry: CC(C)(N)Cc1ccccc1Cl 5.36

What does the data say about its activity (max response)? Entry: CCCN1CCC[C@@H]2Cc3nc(N)ncc3C[C@H]21 3.03

What does the data say about its activity (max response)? Entry: Nc1ccncc1 11.8

What does the data say about its activity (max response)? Entry: C[C@H](N)[C@H](O)c1ccc(O)c(O)c1 5.15

What does the data say about its activity (max response)? Entry: Cn1c(COP(=O)(NCCBr)NCCBr)cnc1[N+](=O)[O-] -13.5

What does the data say about its activity (max response)? Entry: CCc1c(C(=O)C(N)=O)c2c(OCC(=O)O)cccc2n1Cc1ccccc1 -1.25

What does the data say about its activity (max response)? Entry: CC(C)(C)c1ccc(O)cc1 9.89

What does the data say about its activity (max response)? Entry: Clc1ccc(C(c2ccc(Cl)cc2)C(Cl)(Cl)Cl)cc1 4.08

What does the data say about its activity (max response)? Entry: OCCCBr 0.205

What does the data say about its activity (max response)? Entry: C[C@]12CC[C@H]3[C@@H](CCC4=CC(=O)CC[C@@H]43)[C@@H]1CC[C@@H]2OC(=O)CCc1ccco1 -19.1

What does the data say about its activity (max response)? Entry: Cc1ccccc1-n1c(Cn2ncc3c(N)ncnc32)nc2cccc(C)c2c1=O 2.46

What does the data say about its activity (max response)? Entry: CCCCCCC(=O)CCCCCC/C=C/C[C@@H](O)[C@H](O)[C@@](N)(CO)C(=O)O -4.81

What does the data say about its activity (max response)? Entry: CC1(C)CC(O)CC(C)(C)N1O -2.2

What does the data say about its activity (max response)? Entry: N[C@@H]1C[C@H]1c1ccccc1 6.98

What does the data say about its activity (max response)? Entry: N[C@@H](Cc1ccc(N(CCCl)CCCl)cc1)C(=O)O -19.4

What does the data say about its activity (max response)? Entry: COc1ccc2[nH]cc(CCN(C(C)C)C(C)C)c2c1 -8.69

What does the data say about its activity (max response)? Entry: C=C(C)[C@H]1CN[C@H](C(=O)O)[C@H]1CC(=O)O 7.33

What does the data say about its activity (max response)? Entry: CCOC(=O)c1c(C(C#N)=CN)c2ccc(Cl)c(Cl)c2n1C -1.19

What does the data say about its activity (max response)? Entry: NC(=O)[C@@H](CC1CC1)[C@@H](CCC(F)(F)F)C(=O)N[C@H]1N=C(c2ccccc2)c2cccc(F)c2NC1=O -14.1

What does the data say about its activity (max response)? Entry: CC(C(O)c1ccccc1)N(C)C/C=C/c1ccccc1 (centres undefined) -14.5

What does the data say about its activity (max response)? Entry: c1cc2ccc3cccc4ccc(c1)c2c34 -9.29

---

procedure_text: Viability qHTS for spleen associated tyrosine kinase inhibitor (SYKi) drug resistant MV4-11 cells (AID 1963824); also: nearly all actives have a fitted effect of over 35% in size
stated_conditions: SYKi-resistant MV4-11 viability, CellTiter-Glo, 72 h; series mostly up to 45 µM
Protocol: Department of Medicine, Hematology/Oncology University Hospital Frankfurt, Germany. Trials have shown promising clinical activity of the selective SYK inhibitor entospletinib in patients with high expressing HOXA9/MEIS1 acute leukemias. […] 7; Detection; Luminescence; ViewLux plate reader (PerkinElmer). […] 1. Quantitative high-throughput screening (qHTS) of small molecule compounds was conducted on drug resistant SYKi MV4-11 cell line. […] 7. Luminescence was measured on a ViewLux plate reader (PerkinElmer).
Records with an inconclusive call do not appear. Activity calls are given as the source filed them. Calls come from the whole dose curve; as a rule, active = well fitted cell-killing curve with a large enough effect; inconclusive = small, poorly fitted or top-dose-only effect, or effect the other way; inactive = no such curve, though single readings can be large or run the other way.
Result category, one only: Y for active, N for inactive

Per the assay record, what outcome was assigned to C=C(CO)C(=O)O[C@H]1C/C(C)=C/CC/C(CO)=C/[C@H]2OC(=O)C(=C)[C@H]12 ? N

Per the assay record, what outcome was assigned to COc1cc(C[C@@H](C)N)c(OC)cc1C ? N

Per the assay record, what outcome was assigned to COC(=O)[C@@H](N)CCCN=C(N)N[N+](=O)[O-] ? N

Per the assay record, what outcome was assigned to O=C(O)c1nn(Cc2ccc(Cl)cc2Cl)c2ccccc12 ? N

Per the assay record, what outcome was assigned to Fc1cc(F)c2c(c1)[C@H]1C=CC[C@H]1C(c1cccnc1)N2 (stereo partly drawn) ? Y

Per the assay record, what outcome was assigned to CN(C)CCc1ccc(O)cc1 ? N

Per the assay record, what outcome was assigned to CO[C@H]1[C@H](O)[C@H](O[C@H]2CC[C@]3(C)C4CC[C@]5(C)[C@H](C6=CC(=O)OC6)CC[C@]5(O)C4CC[C@@H]3C2)O[C@@H](C)[C@@H]1O (stereo partly drawn) ? Y

Per the assay record, what outcome was assigned to OCCCCC#Cc1cncc(OC[C@@H]2CCN2)c1 ? N

Per the assay record, what outcome was assigned to CO/C=C(/C(=O)OC)c1ccccc1Oc1cc(Oc2ccccc2C#N)ncn1 ? Y

Per the assay record, what outcome was assigned to CC(C)NCC(O)c1ccccc1Cl (stereo not drawn) ? N

Per the assay record, what outcome was assigned to C=C(CO)[C@@]12O[C@@H]1[C@@]1(C)C(=CC2=O)CC[C@@H](O)[C@@H]1C ? Y

Per the assay record, what outcome was assigned to C/C=C(\C)C(=O)OC1CC2C(C)(C)OC(=O)CC(OC(C)=O)C2(C)C2CC(OC(=O)C(C)C)C3(C)C(c4ccoc4)CC4OC43C12C (stereo not drawn) ? N

Per the assay record, what outcome was assigned to CC(C)C(=O)O[C@H]1[C@@H]2[C@H](C)C(=O)O[C@@H]2C[C@@H](C)[C@@H]2C=CC(=O)[C@]21C ? Y

Per the assay record, what outcome was assigned to COC(C)(C)CCCC(C)C/C=C/C(C)=C/C(=O)OC(C)C (stereo not drawn) ? N

Per the assay record, what outcome was assigned to Oc1cccc2cccnc12 ? N

Per the assay record, what outcome was assigned to C#CC1(O)CCC2C3CCC4=CC(=O)CCC4=C3C=CC21C (stereo not drawn) ? Y

Per the assay record, what outcome was assigned to C/C=C(\C)C(=O)O[C@H]1CC2C(=C1C)[C@H]1OC(=O)[C@](C)(O)[C@]1(O)[C@H](OC(=O)CCC)C[C@@]2(C)OC(C)=O (stereo partly drawn) ? Y

Per the assay record, what outcome was assigned to Nc1ccccc1 ? N

Per the assay record, what outcome was assigned to COc1cccc(NCC(F)Cn2c3ccc(Br)cc3c3cc(Br)ccc32)c1 (stereo not drawn) ? Y

Per the assay record, what outcome was assigned to COc1ccc(CN(C(=O)[C@@H](N)Cc2c(C)cc(C(N)=O)cc2C)[C@@H](C)c2ncc(-c3ccccc3)[nH]2)cc1C(=O)O ? N

Per the assay record, what outcome was assigned to COc1c2c(cc3c1OCO3)CCN(C)C2 ? N

Per the assay record, what outcome was assigned to ClC1=C(Cl)C2(Cl)C(CBr)CC1(Cl)C2(Cl)Cl (stereo not drawn) ? N

Per the assay record, what outcome was assigned to COC(=O)C1(C)CCC(O)C2(C)c3c(O)cc(C(C)C)cc3C(O)C(OC(C)=O)C12 (stereo not drawn) ? N

Per the assay record, what outcome was assigned to CCCCCOc1cc2c(cc1-c1cc(/C=C/C(=O)O)ccc1O)C(C)(C)CCC2(C)C ? Y

Per the assay record, what outcome was assigned to CC(O)CN1CCN(CC(=O)[O-])CCN(CC(=O)[O-])CCN(CC(=O)[O-])CC1.[Gd+3] (stereo not drawn) ? N

Per the assay record, what outcome was assigned to C[C@]12CC[C@H](O[C@@H]3O[C@H](CO)[C@@H](O)[C@H](O)[C@H]3O[C@@H]3O[C@H](CO)[C@@H](O)[C@H](O)[C@H]3O)CC1=CC[C@@H]1[C@@H]2CC[C@]2(C)[C@@H](C3=CC(=O)OC3)CC[C@]12O ? Y

Per the assay record, what outcome was assigned to CCC1(c2ccccc2)C(=O)N(COC)C(=O)N(COC)C1=O ? N

Per the assay record, what outcome was assigned to Cc1ccc2c(c1)[C@H]1CN(C)CC[C@H]1N2C(=O)CSc1nnnn1-c1ccc(Cl)cc1 ? N

Per the assay record, what outcome was assigned to CC(C)C[C@H](CN)CC(=O)O ? N

Per the assay record, what outcome was assigned to N#Cc1nn(-c2c(Cl)cc(C(F)(F)F)cc2Cl)c(N)c1S(=O)C(F)(F)F (stereo not drawn) ? Y

Per the assay record, what outcome was assigned to CCCCOC(=O)c1ccccc1C(=O)OCc1ccccc1 ? Y

Per the assay record, what outcome was assigned to Cc1sc2c(c1C)C(c1ccc(Cl)cc1)=NC(CC(=O)Nc1ccc(O)cc1)c1nnc(C)n1-2 (stereo not drawn) ? Y

Per the assay record, what outcome was assigned to Fc1cc(F)c2c(c1)C1C=CCC1C(c1cccnc1)N2 (stereo not drawn) ? Y

Per the assay record, what outcome was assigned to CC[N+]1(CC)CCC(OC(=O)C(O)(c2ccccc2)c2ccccc2)C1 (stereo not drawn) ? N

Per the assay record, what outcome was assigned to C[C@@H](CN1CCC(n2c(=O)[nH]c3cc(Br)ccc32)CC1)NC(=O)[C@@H]1C[C@H]1c1ccccc1 ? Y

Per the assay record, what outcome was assigned to COC1CC(OC2CCC3(C)C(CCC4C3CCC3(C)C(C5=CC(=O)OC5)C(OC(C)=O)CC43O)C2)OC(C)C1OC1OC(CO)C(O)C(O)C1O (stereo not drawn) ? Y

Per the assay record, what outcome was assigned to O=C(N[C@H]1CN2CCC1CC2)c1ccc(Cl)cc1 ? N

Per the assay record, what outcome was assigned to COC(=O)[C@@]12OC[C@]34[C@H]([C@@H](O)[C@@H]1O)[C@@]1(C)CC(=O)C(O)=C(C)[C@@H]1C[C@H]3OC(=O)[C@H](OC(=O)/C=C(\C)C(C)C)[C@@H]24 ? Y
